This section presents molecules with their documented log10 IC50 values.
Biological target: CyclinE1/CDK2 (Homo sapiens)
Construct: purchased Eurofins, discovery 14-475
Test: Fluorescence Polarization (FP) competitive binding assay, Cyclin E1/Cdk2
Settings: 10 nM Cyclin E1/Cdk2, 2 nM FAM probe; average of 2-3 independent experiments; read-out: Cyclin E FP IC50
*1 amine or outer side, *2 acyl side, *3 side chain or, on linkers, in order; H or OH if unused. Where a SMILES comes first, the peptide text is derived from it. Bridges are numbered along the chain shown (N, C = ends). [ ]: non-standard residue; d: D form. The star is where a group is joined. X186 = CN([C@@H](Cc1cc(Cl)ccc1-c1ccc(N2CCOCC2)cn1)C(=O)[*:2])[*:1]; X97 = CN([C@@H](Cc1cc(Cl)ccc1-c1ccn2ncnc2c1)C(=O)[*:2])[*:1]; NMehhhLys(Me) = CN([C@@H](CCCCCCCN(C)[*:3])C(=O)[*:2])[*:1]; cBuCO(3,3-F2-1-CF3) = O=C(C1(C(F)(F)F)CC(F)(F)C1)*; Pro(trans-4-F) = O=C(O)[C@@H]1C[C@@H](F)CN1; Gly(cPr) = N[C@H](C(=O)O)C1CC1
Remember, log10 of IC50, in nM.

molecule="CC(C)C[C@@H]1NC(=O)[C@@H](N(C)C(=O)[C@@H](NC(=O)[C@@H]2C[C@@H](F)CN2C(=O)C2(C(F)(F)F)CC(F)(F)C2)C2CC2)CCCCCCCN(C)C(=O)[C@H](Cc2cc(Cl)ccc2-c2ccn3ncnc3c2)N(C)C1=O [Example 179] ({cBuCO(3,3-F2-1-CF3)}-[Pro(trans-4-F)][Gly(cPr)][NMehhhLys(Me)]L[X97]; lactam 3-C)" value_type="log10 IC50" value=3.05

Input line: Given the entry `CC(=O)N1CC=C(c2ccc(Cl)cc2C[C@H]2C(=O)NCCC=CCCC[C@H](N(C)C(=O)[C@@H](NC(=O)[C@@H]3C[C@@H](F)CN3C(=O)C3(C(F)(F)F)CC(F)(F)C3)C3CC3)C(=O)N[C@@H](CC(C)C)C(=O)N2C)CC1` , report its measured log10 IC50.
Output line: 3.60

Input line: Given the entry CC(C)C[C@@H]1NC(=O)[C@@H](N(C)C(=O)[C@@H](NC(=O)[C@@H]2C[C@@H](F)CN2C(=O)C2(C(F)(F)F)CC(F)(F)C2)C2CC2)CCCCCCCN(C)C(=O)[C@H](Cc2cc(Cl)ccc2-c2ccc(N3CCOCC3)cn2)N(C)C1=O [Example 382] ({cBuCO(3,3-F2-1-CF3)}-[Pro(trans-4-F)][Gly(cPr)][NMehhhLys(Me)]L[X186]; lactam 3-C) , report its measured log10 IC50.
Output line: 3.40

Input line: Given the entry `CC(C)C[C@@H]1NC(=O)[C@@H](N(C)C(=O)[C@@H](NC(=O)[C@@H]2C[C@@H](F)CN2C(=O)C2(C(F)(F)F)CC(F)(F)C2)C2CC2)CC=CCCCCNC(=O)[C@H](Cc2cc(F)cnc2OC2CC2)N(C)C1=O` , report its measured log10 IC50.
Output line: 3.06

----------
Target: CyclinB1/CDK1 (Homo sapiens, UniProt P14635)
Construct: purchased Eurofins, discovery 14-450
Assay: Fluorescence Polarization (FP) competitive binding assay, Cyclin B1/Cdk1;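 also: fluorescence polarization read after equilibration at room temperature, with IC50 taken from serially diluted dose-response curves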
Conditions: 10 nM Cyclin B1/Cdk1, 2 nM FAM probe; average of 2-3 independent experiments; read-out: Cyclin B FP IC50
*1 amine or outer side, *2 acyl side, *3 side chain or, on linkers, in order; H or OH if unused. Where a SMILES comes first, the peptide text is derived from it. Bridges are numbered along the chain shown (N, C = ends). [ ]: non-standard residue; d: D form. The star is where a group is joined. X23 = CCN([C@@H](Cc1cc(Cl)ccc1-c1ccc(N2CCN(C)CC2)cc1)C(=O)[*:2])[*:1]; X8 = CN1CCN(C2CC=C(c3ccc(Cl)cc3C[C@@H](C(=O)[*:2])N(C)[*:1])CC2)CC1; NMehhhLys(Me) = CN([C@@H](CCCCCCCN(C)[*:3])C(=O)[*:2])[*:1]; cBuCO(3,3-F2-1-CF3) = O=C(C1(C(F)(F)F)CC(F)(F)C1)*; Pro(trans-4-F) = O=C(O)[C@@H]1C[C@@H](F)CN1; Gly(cPr) = N[C@H](C(=O)O)C1CC1
This section presents molecules with their documented pIC50 values.
pIC50 is defined as minus the log10 of a concentration measured in mol/L.

molecule="CC(C)C[C@@H]1NC(=O)[C@@H](N(C)C(=O)[C@@H](NC(=O)[C@@H]2C[C@@H](F)CN2C(=O)C2(C(F)(F)F)CC(F)(F)C2)C2CC2)CCCCCCCN(C)C(=O)[C@H](Cc2cc(Cl)ccc2C2=CCC(N3CCN(C)CC3)CC2)N(C)C1=O (stereo partly drawn) [Example 376] ({cBuCO(3,3-F2-1-CF3)}-[Pro(trans-4-F)][Gly(cPr)][NMehhhLys(Me)]L[X8]; lactam 3-C)" study_target="CyclinB1/CDK1 (Homo sapiens, UniProt P14635)" value_type=pIC50 value=7.70
molecule="CC(C)C[C@@H]1NC(=O)[C@@H](N(C)C(=O)[C@@H](NC(=O)[C@@H]2C[C@@H](F)CN2C(=O)C2(C(F)(F)F)CC(F)(F)C2)C2CC2)CC=CCCCCNC(=O)[C@H](Cc2cc(Cl)ccc2C2=CCN(C(=O)C3CC3)CC2)N(C)C1=O [Example 89]" study_target="CyclinB1/CDK1 (Homo sapiens, UniProt P14635)" value_type=pIC50 value=7.70

Continue with the molecule presented below.
Input line: Could you share what pIC50 was measured for CCN1C(=O)[C@H](CC(C)C)NC(=O)[C@@H](N(C)C(=O)[C@@H](NC(=O)[C@@H]2C[C@@H](F)CN2C(=O)C2(C(F)(F)F)CC(F)(F)C2)C2CC2)CCCCCCCN(C)C(=O)[C@@H]1Cc1cc(Cl)ccc1-c1ccc(N2CCN(C)CC2)cc1 [Example 405] ({cBuCO(3,3-F2-1-CF3)}-[Pro(trans-4-F)][Gly(cPr)][NMehhhLys(Me)]L[X23]; lactam 3-C) , tested on CyclinB1/CDK1 (Homo sapiens, UniProt P14635)?
Output line: 7.70

----------
Target: CyclinE1/CDK2 (Homo sapiens, UniProt P24864)
Construct: purchased Eurofins, discovery 14-475
Assay: Fluorescence Polarization (FP) competitive binding assay, Cyclin E1/Cdk2;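 also: readings taken after two-hour equilibration at room temperature in HEPES buffer with NaCl, DTT, NP-40 and BSA, IC50 fitted from eight-concentration serial dilution series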
Details: 10 nM Cyclin E1/Cdk2, 2 nM FAM probe; average of 2-3 independent experiments; read-out: Cyclin E FP IC50
*1 amine or outer side, *2 acyl side, *3 side chain or, on linkers, in order; H or OH if unused. Where a SMILES comes first, the peptide text is derived from it. Bridges are numbered along the chain shown (N, C = ends). [ ]: non-standard residue; d: D form. The star is where a group is joined. NMe(hhhLys) = CN([C@@H](CCCCCCCN[*:3])C(=O)[*:2])[*:1]; cBuCO(3,3-F2-1-CF3) = O=C(C1(C(F)(F)F)CC(F)(F)C1)*; NMePhe(2,5-Cl2) = CN[C@@H](Cc1cc(Cl)ccc1Cl)C(=O)O; Pro(trans-4-F) = O=C(O)[C@@H]1C[C@@H](F)CN1; Gly(cPr) = N[C@H](C(=O)O)C1CC1
value type: pIC50
pIC50 is defined as minus the log10 of a concentration measured in mol/L.

compound="CC(C)C[C@@H]1NC(=O)[C@@H](N(C)C(=O)[C@@H](NC(=O)[C@@H]2C[C@@H](F)CN2C(=O)C2(C(F)(F)F)CC(F)(F)C2)C2CC2)CCCCCCCNC(=O)[C@H](Cc2cc(Cl)ccc2Cl)N(C)C1=O [Example 7] ({cBuCO(3,3-F2-1-CF3)}-[Pro(trans-4-F)][Gly(cPr)][NMe(hhhLys)]L[NMePhe(2,5-Cl2)]; lactam 3-C)" value=6.54

Continue with the compound presented below.
Input line: Given the entry `CC(C)C[C@@H]1NC(=O)[C@@H](N(C)C(=O)[C@@H](NC(=O)[C@@H]2C[C@@H](F)CN2C(=O)C2(C(F)(F)F)CC(F)(F)C2)C2CC2)CC=CCCCCN(C)C(=O)[C@H](Cc2cc(Cl)cnc2OC2CC2)N(C)C1=O` , report its measured pIC50.
Output line: 6.31

----------
This section presents molecules with their documented GI50 values.
Tested on: OVCAR3 cells
Experiment: MTT proliferation assay, OVCAR3;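 also: compound given as an 8- or 10-point series, one day after plating, with exposure covering roughly 3-4 cell doublings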
Format: cell-based
Conditions: 5 days compound exposure, 1:3 serial dilution starting at 10 μM
*1 amine or outer side, *2 acyl side, *3 side chain or, on linkers, in order; H or OH if unused. Where a SMILES comes first, the peptide text is derived from it. Bridges are numbered along the chain shown (N, C = ends). [ ]: non-standard residue; d: D form. The star is where a group is joined. X3 = COCCOCCN1CCN(c2ccc(-c3ccc(Cl)cc3C[C@@H](C(=O)[*:2])N(C)[*:1])cc2)CC1; X6 = CN([C@@H](Cc1cc(Cl)ccc1-c1ccc(-c2cccnc2)cc1)C(=O)[*:2])[*:1]; NMehhhLys(Me) = CN([C@@H](CCCCCCCN(C)[*:3])C(=O)[*:2])[*:1]; cBuCO(3,3-F2-1-CF3) = O=C(C1(C(F)(F)F)CC(F)(F)C1)*; Pro(trans-4-F) = O=C(O)[C@@H]1C[C@@H](F)CN1; Gly(cPr) = N[C@H](C(=O)O)C1CC1

// below: answered molecules
molecule=CCN(C(=O)[C@@H](NC(=O)[C@@H]1C[C@@H](F)CN1C(=O)C1(C(F)(F)F)CCC1)C1CC1)[C@H]1CCCCCCCN(C)C(=O)[C@H](Cc2cc(Cl)cnc2OC2CC2)N(C)C(=O)[C@H](CC(C)C)NC1=O value_type=GI50 value="70 nM"
molecule="COCCOCCN1CCN(c2ccc(-c3ccc(Cl)cc3C[C@H]3C(=O)N(C)CCCCCCC[C@H](N(C)C(=O)[C@@H](NC(=O)[C@@H]4C[C@@H](F)CN4C(=O)C4(C(F)(F)F)CC(F)(F)C4)C4CC4)C(=O)N[C@@H](CC(C)C)C(=O)N3C)cc2)CC1 [Example 356] ({cBuCO(3,3-F2-1-CF3)}-[Pro(trans-4-F)][Gly(cPr)][NMehhhLys(Me)]L[X3]; lactam 3-C)" value_type=GI50 value="10 nM"

Input line: Given the entry CC(C)C[C@@H]1NC(=O)[C@@H](N(C)C(=O)[C@@H](NC(=O)[C@@H]2C[C@@H](F)CN2C(=O)C2(C(F)(F)F)CC(F)(F)C2)C2CC2)CCCCCCCN(C)C(=O)[C@H](Cc2cc(Cl)ccc2-c2ccc(-c3cccnc3)cc2)N(C)C1=O [Example 375] ({cBuCO(3,3-F2-1-CF3)}-[Pro(trans-4-F)][Gly(cPr)][NMehhhLys(Me)]L[X6]; lactam 3-C) , report its measured GI50.
Output line: 20 nM
